Target: CDK2 (UniProt P24941)
Test: Enzyme Assay
outcome.measure: pIC50
Friendly reminder that pIC50 comes from taking -log10 of the concentration in mol/L.

For orientation, consider the following solved cases.
[[record]]
smiles_record = "COC(=O)[C@@]1(O)C[C@H]2O[C@]1(C)n1c3ccccc3c3c4c(c5c6ccccc6n2c5c31)C(=O)N[C@@H]4Cc1ccccc1"
outcome_measure = "pIC50"
reported_result = 5.00

[[record]]
smiles_record = "COC(=O)[C@@]1(O)C[C@H]2O[C@]1(C)n1c3ccccc3c3c4c(c5c6ccccc6n2c5c31)C(=O)N[C@H]4C(C)C"
outcome_measure = "pIC50"
reported_result = 5.72

[[record]]
smiles_record = "COC(=O)[C@@]1(O)C[C@H]2O[C@]1(C)n1c3ccccc3c3c4c(c5c6ccccc6n2c5c31)C(=O)N[C@H]4Cc1ccccc1"
outcome_measure = "pIC50"
reported_result = 6.82

[[record]]
smiles_record = "COC(=O)[C@@]1(O)C[C@H]2O[C@]1(C)n1c3ccccc3c3c4c(c5c6ccccc6n2c5c31)C(=O)N[C@H]4CC(C)C"
outcome_measure = "pIC50"
reported_result = 7.15


Query block: What value of pIC50 on CDK2 (UniProt P24941) does CC(C)(C)n1nc(-c2cccc3ccccc23)c2c(N)ncnc21 have?
Result block: 7.82

Ref: the Kinase Knowledgebase extract (Sharma et al. 2016)
